# experimental target: T1, M2-1(58-177) core domain (human respiratory syncytial virus …, UniProt P04545 58-177)
# T1 sequence: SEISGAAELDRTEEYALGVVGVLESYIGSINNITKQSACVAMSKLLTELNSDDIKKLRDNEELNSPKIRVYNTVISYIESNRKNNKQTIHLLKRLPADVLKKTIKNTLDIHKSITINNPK
# assay explanation: NMR titration; NMR: 50-60 µM protein, 293 K, 14.1 T, 1:1 model, buffer/salt/pH not in material; EMSA: 100 µM GST fusion eluted with GSH, ~50 µM tRNA, 1 h room temperature, 1.5% agarose, 1x Tris-Glycine, 4°C
# cond: protein: recombinant; tags: N-terminal Gly-Ser left after thrombin cleavage of GST
pKd: −log10 of the molar value.
The threshold is inclusive: pKd of exactly 4 counts as yes (1); values below receive no (0).

# binder, class name
measured = [
    ("UUUUUAAUUAACU (ssRNA) [GE_SH-neg]", "yes (1)"),
]

State whether the measured pKd reaches 4, counting equality as reaching it, for CCAAAAAAAU (ssRNA) [short A-rich (short polyA)]
yes (1)

Hi team, for TTTTATATAACT (ssDNA) [GE_F-DNA] , is the recorded pKd at or above 4?
no (0)
